Each entry below carries its reported pIC50.
Biological target: human NaV subtype, like NaV 1.7 (Homo sapiens, UniProt Q15858)
Sequence (Q15858 whole entry): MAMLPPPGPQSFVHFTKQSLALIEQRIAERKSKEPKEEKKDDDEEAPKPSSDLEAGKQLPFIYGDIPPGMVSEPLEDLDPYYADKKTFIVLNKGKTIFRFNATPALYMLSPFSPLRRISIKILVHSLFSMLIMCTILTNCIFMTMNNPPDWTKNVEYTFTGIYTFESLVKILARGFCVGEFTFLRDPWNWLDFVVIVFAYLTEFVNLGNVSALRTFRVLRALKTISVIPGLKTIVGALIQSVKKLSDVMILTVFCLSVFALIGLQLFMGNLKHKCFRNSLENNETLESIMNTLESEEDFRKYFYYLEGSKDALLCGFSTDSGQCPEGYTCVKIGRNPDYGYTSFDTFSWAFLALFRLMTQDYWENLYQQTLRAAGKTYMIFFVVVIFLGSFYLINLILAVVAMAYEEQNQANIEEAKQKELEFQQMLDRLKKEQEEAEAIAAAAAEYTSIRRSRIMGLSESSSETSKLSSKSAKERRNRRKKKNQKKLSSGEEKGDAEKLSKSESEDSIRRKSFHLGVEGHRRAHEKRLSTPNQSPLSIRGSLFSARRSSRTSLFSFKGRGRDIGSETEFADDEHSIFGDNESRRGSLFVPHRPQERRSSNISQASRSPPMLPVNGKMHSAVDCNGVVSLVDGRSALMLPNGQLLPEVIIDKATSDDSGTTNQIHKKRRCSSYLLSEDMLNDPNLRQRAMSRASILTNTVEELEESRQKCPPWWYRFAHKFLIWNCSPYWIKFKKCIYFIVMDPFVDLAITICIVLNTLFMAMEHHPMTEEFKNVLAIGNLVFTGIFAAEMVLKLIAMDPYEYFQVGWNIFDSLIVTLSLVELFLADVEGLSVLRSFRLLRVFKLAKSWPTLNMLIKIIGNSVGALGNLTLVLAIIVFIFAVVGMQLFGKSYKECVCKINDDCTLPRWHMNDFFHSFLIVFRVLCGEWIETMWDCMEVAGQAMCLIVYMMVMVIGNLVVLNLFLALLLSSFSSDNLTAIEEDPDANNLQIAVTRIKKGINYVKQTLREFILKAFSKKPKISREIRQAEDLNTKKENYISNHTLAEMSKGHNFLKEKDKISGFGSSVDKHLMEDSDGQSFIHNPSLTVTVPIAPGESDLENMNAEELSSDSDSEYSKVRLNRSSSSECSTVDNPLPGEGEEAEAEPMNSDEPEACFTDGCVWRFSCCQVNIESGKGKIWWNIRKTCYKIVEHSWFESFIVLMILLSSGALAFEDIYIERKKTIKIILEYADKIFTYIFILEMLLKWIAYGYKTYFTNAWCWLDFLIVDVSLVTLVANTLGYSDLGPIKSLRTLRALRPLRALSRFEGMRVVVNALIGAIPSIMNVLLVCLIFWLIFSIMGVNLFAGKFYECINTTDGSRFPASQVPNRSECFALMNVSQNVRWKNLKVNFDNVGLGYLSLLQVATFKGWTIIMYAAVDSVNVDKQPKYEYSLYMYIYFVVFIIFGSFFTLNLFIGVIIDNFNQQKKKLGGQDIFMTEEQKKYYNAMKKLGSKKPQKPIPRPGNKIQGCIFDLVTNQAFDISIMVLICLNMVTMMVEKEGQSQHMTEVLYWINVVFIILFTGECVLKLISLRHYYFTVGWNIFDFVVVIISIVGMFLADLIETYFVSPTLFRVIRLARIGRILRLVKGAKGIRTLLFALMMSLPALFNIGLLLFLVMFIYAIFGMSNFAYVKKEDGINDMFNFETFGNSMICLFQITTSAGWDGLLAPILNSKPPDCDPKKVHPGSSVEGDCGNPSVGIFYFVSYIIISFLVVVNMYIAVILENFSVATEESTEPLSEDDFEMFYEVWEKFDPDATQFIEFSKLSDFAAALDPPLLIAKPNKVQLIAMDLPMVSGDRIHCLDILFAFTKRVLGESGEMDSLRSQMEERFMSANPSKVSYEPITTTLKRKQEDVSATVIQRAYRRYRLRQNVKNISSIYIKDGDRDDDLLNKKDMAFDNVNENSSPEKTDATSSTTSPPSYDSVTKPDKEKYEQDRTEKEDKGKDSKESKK
Assay: E-VIPR optical membrane potential assay with electrical stimulation
Conditions: active against one or more sodium channels; Table 3 does not name the assay or NaV subtype; read-out: Binned Activity Data (IC50)
pIC50: −log10 of the molar value.

// solved cases for pIC50 follow
Return pIC50 measured with human NaV subtype, like NaV 1.7 (Homo sapiens, UniProt Q15858) given this compound: COc1ccc(C(=O)N2CCC3(CC2)c2cc(C(=O)C(F)(F)F)cn2C(C)(C)CN3C)cc1C
< 5.30

Lab request: please report pIC50 under test system human NaV subtype, like NaV 1.7 (Homo sapiens, UniProt Q15858) for Cc1cc(C(=O)N2CCC3(CC2)c2c(C#N)cc(C(F)(F)F)n2CCN3C)ccc1C(C)(C)O
5.30 to 5.70

Continuing:
Param readout= pIC50; system= human NaV subtype, like NaV 1.7 (Homo sapiens, UniProt Q15858); entry= Cc1nc(C(=O)N2CCC3(CC2)c2c(Cl)cc(C(F)(F)F)n2CCN3C)ccc1OC(C)C ; returns value.
≥ 5.70

Lab note: need pIC50 with human NaV subtype, like NaV 1.7 (Homo sapiens, UniProt Q15858) for entry CCOc1ccc(C(=O)N2CCC3(CC2)c2ccc(Cl)n2CCN3C)cc1OCC , please look it up.
< 5.30

Observed pIC50 on human NaV subtype, like NaV 1.7 (Homo sapiens, UniProt Q15858) for COCCN1CCn2cccc2C12CCN(C(=O)c1ccc(OC(C)C)c(C)c1)CC2 , please.
≥ 5.70

Given the entry CNS(=O)(=O)c1ccc(C(=O)N2CCC3(CC2)c2ccc(C(F)(F)C(F)(F)F)n2CCN3C)cc1 , what pIC50 was observed with human NaV subtype, like NaV 1.7 (Homo sapiens, UniProt Q15858)?
≥ 5.70

Give the reported pIC50 for Cc1cc(C(=O)N2CCC3(CC2)NCCn2c(C(F)(F)F)ccc23)ccc1C(C)(C)O (system: human NaV subtype, like NaV 1.7 (Homo sapiens, UniProt Q15858)).
≥ 5.70

What pIC50 appears in the records for this compound with human NaV subtype, like NaV 1.7 (Homo sapiens, UniProt Q15858)? CCCOc1ccc(C(=O)N2CCC3(CC2)c2ccc(C(C)=O)n2CCN3C)cc1OC
5.30 to 5.70

Test system human NaV subtype, like NaV 1.7 (Homo sapiens, UniProt Q15858); read-out pIC50; what value for COc1ccc(C(=O)N2CCC3(CC2)c2ccc(C(F)(F)F)n2CCN3C)cc1 ?
< 5.30

Form field: pIC50 recorded for CNC(=O)N1CCn2c(C(F)(F)F)ccc2C12CCN(C(=O)c1ccc(OC(C)C)c(Cl)c1)CC2 with human NaV subtype, like NaV 1.7 (Homo sapiens, UniProt Q15858) (enter value)
≥ 5.70

Reported pIC50 for human NaV subtype, like NaV 1.7 (Homo sapiens, UniProt Q15858), given COc1cc(C(=O)N2CCC3(CC2)c2ccc(C(=O)C(F)(F)F)n2CCN3C)ccc1-c1ccccc1 ?
≥ 5.70

Form field: pIC50 recorded for CCC(=O)N1CCn2c(C(F)(F)F)ccc2C12CCN(C(=O)c1ccc(OC(C)C)c(OC)c1)CC2 with human NaV subtype, like NaV 1.7 (Homo sapiens, UniProt Q15858) (enter value)
≥ 5.70

----------
Molecular target: human NaV subtype, like NaV 1.7 (Homo sapiens, UniProt Q15858)
Test: E-VIPR optical membrane potential assay with electrical stimulation
Conditions: active against one or more sodium channels; Table 3 does not name the assay or NaV subtype; read-out: Binned Activity Data (IC50)
quantity: IC50

# get_value(readout='IC50', item= CC(=O)c1ccc2n1CCN(C)C21CCN(C(=O)c2ccc(C(C)(C)O)c(C)c2)CC1 )
2000 to 5000 nM

***
Name the recorded IC50 for CCCc1ccc(C(=O)N2CCC3(CC2)c2ccc(Cl)n2CCN3C)cc1 .
> 5000 nM

What value of IC50 has been reported for the following compound? CN1CCn2c(C(F)(F)F)cc(F)c2C12CCN(C(=O)c1ccc(C(C)(C)O)cc1)CC2
≤ 2000 nM

Field request: IC50 | item: CC(C)Oc1ccc(C(=O)N2CCC3(CC2)NCC(C)(C)n2c(C(F)(F)F)ccc23)cc1F
≤ 2000 nM

Need IC50 of C[C@H]1Cn2c(C(=O)C(F)(F)F)ccc2C2(CCN(C(=O)c3ccccc3OC(F)F)CC2)N1C , thanks.
≤ 2000 nM

What measured IC50 goes with CN1CCn2c(ccc2S(C)(=O)=O)C12CCN(C(=O)c1ccc(C3CCCCC3)cc1)CC2 ?
2000 to 5000 nM

Which IC50 reading was recorded for the compound Cc1cc(C(=O)N2CCC3(CC2)c2ccc(C(F)(F)F)n2CCN3C)ccc1S(=O)(=O)NC(C)C ?
≤ 2000 nM

What IC50 value was documented for this compound, Cc1cc(C(=O)N2CCC3(CC2)c2ccc(C(F)(F)F)n2CCN3C2CC2)ccc1S(=O)(=O)C(C)C ?
≤ 2000 nM

----------
Below: a set of entries, each annotated with reported pIC50.
Molecular target: human NaV subtype, like NaV 1.7 (Homo sapiens)
Experiment: E-VIPR optical membrane potential assay with electrical stimulation
Settings: active against one or more sodium channels; Table 3 does not name the assay or NaV subtype; read-out: Binned Activity Data (IC50)
pIC50: −log10 of the molar value.

Solved entries (count: 5):
Form entry - test system: human NaV subtype, like NaV 1.7 (Homo sapiens); read-out: pIC50; molecule: CNC(=O)N1CCn2c(C(F)(F)F)ccc2C12CCN(C(=O)c1ccc(OC(C)C)c(OC)c1)CC2
≥ 5.70

Param readout= pIC50; system= human NaV subtype, like NaV 1.7 (Homo sapiens); entry= COc1cc(C(=O)N2CCC3(CC2)NC(C)(C)Cn2c(C(=O)C(F)(F)F)ccc23)ccc1-c1ccccc1 ; returns value.
≥ 5.70

// fetch human NaV subtype, like NaV 1.7 (Homo sapiens) pIC50 for CC(C)Oc1ccc(C(=O)N2CCC3(CC2)NCCn2c(C(F)(F)F)ccc23)cc1
5.30 to 5.70

Param readout = pIC50; param system = human NaV subtype, like NaV 1.7 (Homo sapiens); param query = CN1CCn2c(C(=O)C(C)(C)C)ccc2C12CCN(C(=O)c1ccc(C(C)(C)O)c(F)c1)CC2 ; response: value
≥ 5.70

Fill in the recorded pIC50 for this molecule, with human NaV subtype, like NaV 1.7 (Homo sapiens) as test system: C[C@H]1Cn2c(C(=O)C(F)(F)F)ccc2C2(CCN(C(=O)c3ccc(S(=O)(=O)C(C)(C)C)cc3)CC2)N1C
≥ 5.70

More entries:
Under human NaV subtype, like NaV 1.7 (Homo sapiens): pIC50 value of CN1CCn2c(C(=O)C3(C)CC3)ccc2C12CCN(C(=O)c1ccc(S(=O)(=O)NC3CC3)cc1)CC2 ?
≥ 5.70

Value wanted: pIC50 (human NaV subtype, like NaV 1.7 (Homo sapiens)) of entry CC(C)CCOc1ccc(C(=O)N2CCC3(CC2)c2ccc(C(=O)C(C)(C)C)n2CCN3C)cc1
≥ 5.70

State its pIC50 on human NaV subtype, like NaV 1.7 (Homo sapiens): CC(=O)c1ccc2n1CCN(C)C21CCN(C(=O)c2ccc(C3CC3)cc2)CC1
< 5.30

API: value(readout= pIC50, system= human NaV subtype, like NaV 1.7 (Homo sapiens), query= CC(C)Oc1ccc(C(=O)N2CCC3(CC2)c2ccc(C(=O)C4CC4)n2CCN3C)cc1F )
≥ 5.70

// map CCCN(CCC)S(=O)(=O)c1ccc(C(=O)N2CCC3(CC2)c2ccc(C(C)=O)n2CCN3C)cc1 to recorded pIC50 (system: human NaV subtype, like NaV 1.7 (Homo sapiens))
5.30 to 5.70

Can you look up pIC50 on human NaV subtype, like NaV 1.7 (Homo sapiens) for COc1ncccc1-c1ccc(C(=O)N2CCC3(CC2)c2ccc(C(=O)C(F)(F)F)n2CCN3C)cc1C ?
< 5.30

Give human NaV subtype, like NaV 1.7 (Homo sapiens) pIC50 for CN1CCn2c(C(=O)C3(C)CC3)ccc2C12CCN(C(=O)c1ccc(S(=O)(=O)C(F)(F)F)cc1)CC2
≥ 5.70

Under human NaV subtype, like NaV 1.7 (Homo sapiens): pIC50 value of CC(=O)c1ccc2n1CCN(C)C21CCN(C(=O)c2ccc(C3(O)CCCC3)cc2)CC1 ?
< 5.30

Form: Entry = CCc1ccc(C(=O)N2CCC3(CC2)c2ccc(C(C)=O)n2CCN3C)cc1 | System = human NaV subtype, like NaV 1.7 (Homo sapiens) | pIC50 = ____
< 5.30

Please state recorded pIC50 (tested on human NaV subtype, like NaV 1.7 (Homo sapiens)) of Cc1cc(C(=O)N2CCC3(CC2)NC(C)(C)Cn2c(C(F)(F)F)ccc23)ccc1OC(C)C
≥ 5.70

Provide the documented pIC50 with human NaV subtype, like NaV 1.7 (Homo sapiens) as the system for CN1CCn2c(ccc2C(F)(F)C(F)(F)F)C12CCN(C(=O)c1ccc(S(=O)(=O)NC3CC3)cc1)CC2
≥ 5.70

Query pIC50 on human NaV subtype, like NaV 1.7 (Homo sapiens) for COc1ccc(C(=O)N2CCC3(CC2)c2ccc(C(=O)C(F)(F)F)n2CCN3C)cc1-c1ccccc1
5.30 to 5.70

What pIC50 appears in the records for this molecule with human NaV subtype, like NaV 1.7 (Homo sapiens)? CN1CCn2c(C(F)(F)F)cc(Cl)c2C12CCN(C(=O)c1ccc(COCCC(F)(F)F)cc1)CC2
≥ 5.70

Record lookup: for human NaV subtype, like NaV 1.7 (Homo sapiens), what pIC50 belongs to CC(C)Oc1ccc(C(=O)N2CCC3(CC2)c2ccc(C(F)(F)F)n2CCN3C)cc1F ?
≥ 5.70

# get_value(readout= pIC50, system= human NaV subtype, like NaV 1.7 (Homo sapiens)) for CC(C)Oc1ccc(C(=O)N2CCC3(CC2)c2ccc(Cl)n2CCN3C)cc1
< 5.30

Hello, I am looking for reported pIC50 with human NaV subtype, like NaV 1.7 (Homo sapiens) for COc1cc(C(=O)N2CCC3(CC2)c2c(F)cc(C(F)(F)F)n2CCN3C)ccc1OCCO . Could you help?
< 5.30
